# TESTED_SYSTEM: P-gp (Homo sapiens)
# Sequence (P08183 whole entry): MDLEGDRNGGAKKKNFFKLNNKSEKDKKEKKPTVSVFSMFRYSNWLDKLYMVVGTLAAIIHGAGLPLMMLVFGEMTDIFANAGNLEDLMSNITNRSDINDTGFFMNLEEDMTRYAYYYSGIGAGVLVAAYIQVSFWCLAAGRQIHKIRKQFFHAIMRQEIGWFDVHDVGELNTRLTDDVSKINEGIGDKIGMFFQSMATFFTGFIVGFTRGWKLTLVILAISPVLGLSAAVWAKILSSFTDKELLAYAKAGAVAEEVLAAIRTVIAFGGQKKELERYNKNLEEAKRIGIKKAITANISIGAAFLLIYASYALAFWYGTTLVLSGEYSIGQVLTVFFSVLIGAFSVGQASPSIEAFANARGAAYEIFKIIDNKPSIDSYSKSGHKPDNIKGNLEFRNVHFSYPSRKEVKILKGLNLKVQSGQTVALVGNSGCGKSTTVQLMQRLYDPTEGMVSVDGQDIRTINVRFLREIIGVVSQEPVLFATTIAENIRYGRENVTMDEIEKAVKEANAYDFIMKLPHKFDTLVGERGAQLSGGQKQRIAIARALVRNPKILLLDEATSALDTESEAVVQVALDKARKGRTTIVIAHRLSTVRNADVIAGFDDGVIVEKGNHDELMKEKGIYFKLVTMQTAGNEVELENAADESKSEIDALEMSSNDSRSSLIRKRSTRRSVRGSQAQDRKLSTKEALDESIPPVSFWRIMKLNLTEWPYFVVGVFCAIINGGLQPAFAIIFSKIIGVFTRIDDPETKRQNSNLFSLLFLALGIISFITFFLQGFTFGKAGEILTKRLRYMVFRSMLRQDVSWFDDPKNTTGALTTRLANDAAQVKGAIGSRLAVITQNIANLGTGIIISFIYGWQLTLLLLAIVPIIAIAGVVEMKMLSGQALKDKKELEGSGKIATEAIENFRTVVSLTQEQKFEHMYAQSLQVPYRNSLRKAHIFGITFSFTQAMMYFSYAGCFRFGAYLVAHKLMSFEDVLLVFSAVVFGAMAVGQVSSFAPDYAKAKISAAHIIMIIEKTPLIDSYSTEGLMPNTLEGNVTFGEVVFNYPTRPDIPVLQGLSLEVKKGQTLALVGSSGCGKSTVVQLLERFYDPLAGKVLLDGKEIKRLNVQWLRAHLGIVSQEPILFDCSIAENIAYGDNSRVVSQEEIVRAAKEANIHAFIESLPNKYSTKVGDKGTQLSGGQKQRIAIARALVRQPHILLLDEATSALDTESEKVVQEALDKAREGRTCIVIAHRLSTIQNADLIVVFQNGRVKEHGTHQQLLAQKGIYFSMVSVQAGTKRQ
# TEST_PROTOCOL: P-gp ATPase assay, hydrolysis of [γ-32P]-ATP by P-gp membranes
# Type: biochemical
Attribute: Km
Kindly provide the numeric value in µM only, without the unit symbol.

For reference, reported Km for COc1cc2c(c(OC)c1OC)-c1ccc(OC)c(=O)cc1[C@@H](NC(C)=O)CC2 [Colchicine, reference compound] stands at 37

For reference, reported Km for OC[C@H]1O[C@@H](n2ccc3cc(C4CCCCC4)ccc32)C[C@@H]1O [5-CHInd, 5-cyclohexyl indolyl 2′-deoxyribose] stands at 0.06

---

# TESTED_SYSTEM: UniProt P08183
# TEST_PROTOCOL: Monolayer efflux experiment, MDCK-MDR1 monolayers
# ASSAY_SETUP: dog
VALUE_TYPE: efflux ratio at 60 min, 3 μM

Field efflux ratio at 60 min, 3 μM (UniProt P08183), entry COC(=O)c1ccccc1-c1c2ccc(=N)cc-2oc2cc(N)ccc12 [Rhodamine 123] : 72.7

---

# TEST_PROTOCOL: Monolayer efflux experiment, MDCK monolayers
# ASSAY_SETUP: dog
VALUE_TYPE: efflux ratio at 60 min, 3 μM

For reference, reported efflux ratio at 60 min, 3 μM for COC(=O)c1ccccc1-c1c2ccc(=N)cc-2oc2cc(N)ccc12 [Rhodamine 123] stands at 1.2
